Experiment: Pharmacokinetics after i.v. injection in rabbits
Format: in vivo, rabbit
Settings: rabbit, plasma, iv, 90 mg/kg, i.v. 90 mg/kg (as acid); MEAN ± S.E.M. of 4 rabbits; read-out: t1/2β
attribute-measured: half-life

Prompt: Query (compound): C=CCOc1ccc(CC(=O)O)cc1Cl [Alclofenac-Lysine, lysine 4-allyloxy-3-chlorophenylacetate] ; field requested: half-life
Response: 6.68 h

====

Test: Pharmacokinetics after i.v. injection in rabbits
Type: in vivo, rabbit
Details: rabbit, plasma, iv, 90 mg/kg, i.v. 90 mg/kg (as acid); MEAN ± S.E.M. of 4 rabbits; read-out: t1/2α
attribute-measured: half-life (min)
// return numeric value only (unit: min, not printed)

Prompt: Query (compound): C=CCOc1ccc(CC(=O)O)cc1Cl [Alclofenac-Lysine, lysine 4-allyloxy-3-chlorophenylacetate] ; field requested: half-life
Response: 9

====

Test: Pharmacokinetics from plasma levels after oral, rectal and intramuscular administration in rabbits
Assay type: in vivo, rabbit
Details: rabbit, plasma, im, 80 mg/kg, INTRAMUSCOLAR 80 mg/kg, ± E.S.M.; read-out: tmax (converted)
attribute-measured: Tmax
Include the unit right after the number.

Prompt: Query (molecule): C=CCOc1ccc(CC(=O)O)cc1Cl [Alclofenac-Lysine, lysine 4-allyloxy-3-chlorophenylacetate] ; field requested: Tmax
Response: 4.62 h

====

Test: Pharmacokinetics from plasma levels after oral, rectal and intramuscular administration in rabbits
Assay type: in vivo, rabbit
Conditions: rabbit, plasma, po, 90 mg/kg, P.OS 90 mg/kg, ± E.S.M.; read-out: tmax (converted)
attribute-measured: Tmax

Prompt: Query (compound): C=CCOc1ccc(CC(=O)O)cc1Cl [Alclofenac, 4-allyloxy-3-chlorophenylacetic acid, reference compound] ; field requested: Tmax
Response: 2.88 h

====

Assay: Pharmacokinetics after i.v. injection in rabbits
Assay type: in vivo, rabbit
Conditions: rabbit, plasma, iv, 90 mg/kg, i.v. 90 mg/kg (as acid); MEAN ± S.E.M. of 4 rabbits; read-out: Kel (converted)
attribute-measured: k el (s⁻¹)
// return numeric value only (unit: s⁻¹, not printed)

Prompt: Query (molecule): C=CCOc1ccc(CC(=O)O)cc1Cl [Alclofenac-Lysine, lysine 4-allyloxy-3-chlorophenylacetate] ; field requested: k el
Response: 4.83e-05

====

Experiment: Pharmacokinetics after i.v. injection in rabbits
Type: in vivo, rabbit
Details: rabbit, in vivo, iv, 90 mg/kg, i.v. 90 mg/kg (as acid); MEAN ± S.E.M. of 4 rabbits; read-out: β (converted)
attribute-measured: k el (s⁻¹)
// return numeric value only (unit: s⁻¹, not printed)

Prompt: Query (molecule): C=CCOc1ccc(CC(=O)O)cc1Cl [Alclofenac-Lysine, lysine 4-allyloxy-3-chlorophenylacetate] ; field requested: k el
Response: 3.17e-05

====

Assay: Pharmacokinetics from plasma levels after oral, rectal and intramuscular administration in rabbits
Assay type: in vivo, rabbit
Settings: rabbit, plasma, po, 90 mg/kg, P.OS 90 mg/kg, ± E.S.M.; read-out: Cmax
Method: The following pharmacological experimentation was carried out in order to estimate the comparative absorption and bioavailability through various administration routes in rabbits of Alclofenac acid and its lysine salt.
attribute-measured: Cmax (µg/mL)
// return numeric value only (unit: µg/mL, not printed)

Prompt: Query (compound): C=CCOc1ccc(CC(=O)O)cc1Cl [Alclofenac, 4-allyloxy-3-chlorophenylacetic acid, reference compound] ; field requested: Cmax
Response: 358

====

Assay: Extent of availability after different routes, intravenous administration as reference
Assay type: in vivo, rabbit
Conditions: rabbit, plasma, po, 90 mg/kg, P.O. 90 mg/kg, i.v. as reference; read-out: % Availability (theoretical AUC)
attribute-measured: bioavailability (%)
// return numeric value only (unit: %, not printed)

Prompt: Query (compound): C=CCOc1ccc(CC(=O)O)cc1Cl [Alclofenac-Lysine, lysine 4-allyloxy-3-chlorophenylacetate] ; field requested: bioavailability
Response: 82.7

====

Experiment: Extent of availability after different routes, intravenous administration as reference
Type: in vivo, rabbit
Details: rabbit, plasma, 100 mg/kg, Rectal 100 mg/kg, i.v. as reference; read-out: % Availability (practical AUC)
Method: The following pharmacological experimentation was carried out in order to estimate the comparative absorption and bioavailability through various administration routes in rabbits of Alclofenac acid and its lysine salt.
attribute-measured: bioavailability (%)
// return numeric value only (unit: %, not printed)

Prompt: Query (compound): C=CCOc1ccc(CC(=O)O)cc1Cl [Alclofenac-Lysine, lysine 4-allyloxy-3-chlorophenylacetate] ; field requested: bioavailability
Response: 100

====

Assay: Extent of availability after different routes, intravenous administration as reference
Type: in vivo, rabbit
Conditions: rabbit, plasma, im, 80 mg/kg, I.M. 80 mg/kg, i.v. as reference; read-out: % Availability (theoretical AUC)
attribute-measured: bioavailability (%)
// return numeric value only (unit: %, not printed)

Prompt: Query (molecule): C=CCOc1ccc(CC(=O)O)cc1Cl [Alclofenac-Lysine, lysine 4-allyloxy-3-chlorophenylacetate] ; field requested: bioavailability
Response: 155

====

Experiment: Pharmacokinetics after i.v. injection in rabbits
Format: in vivo, rabbit
Settings: rabbit, plasma, iv, 90 mg/kg, i.v. 90 mg/kg (as acid); MEAN ± S.E.M. of 4 rabbits; read-out: √1
attribute-measured: Vd

Prompt: Query (molecule): C=CCOc1ccc(CC(=O)O)cc1Cl [Alclofenac-Lysine, lysine 4-allyloxy-3-chlorophenylacetate] ; field requested: Vd
Response: 0.196 L/kg

====

Test: Extent of availability after different routes, intravenous administration as reference
Type: in vivo, rabbit
Conditions: rabbit, plasma, im, 80 mg/kg, I.M. 80 mg/kg, i.v. as reference; read-out: % Availability (practical AUC)
Experimental: The following pharmacological experimentation was carried out in order to estimate the comparative absorption and bioavailability through various administration routes in rabbits of Alclofenac acid and its lysine salt.
attribute-measured: bioavailability
Include the unit right after the number.

Prompt: Query (compound): C=CCOc1ccc(CC(=O)O)cc1Cl [Alclofenac-Lysine, lysine 4-allyloxy-3-chlorophenylacetate] ; field requested: bioavailability
Response: 95.4%

====

Test: Pharmacokinetics from plasma levels after oral, rectal and intramuscular administration in rabbits
Format: in vivo, rabbit
Conditions: rabbit, plasma, 100 mg/kg, RECTAL 100 mg/kg, ± E.S.M.
attribute-measured: CL/F
Include the unit right after the number.

Prompt: Query (molecule): C=CCOc1ccc(CC(=O)O)cc1Cl [Alclofenac, 4-allyloxy-3-chlorophenylacetic acid, reference compound] ; field requested: CL/F
Response: 0.54 mL/min/kg

====

Experiment: Pharmacokinetics after i.v. injection in rabbits
Assay type: in vivo, rabbit
Details: rabbit, plasma, iv, 90 mg/kg, i.v. 90 mg/kg (as acid); MEAN ± S.E.M. of 4 rabbits; read-out: Vdβ
attribute-measured: Vd (L/kg)
// return numeric value only (unit: L/kg, not printed)

Prompt: Query (compound): C=CCOc1ccc(CC(=O)O)cc1Cl [Alclofenac-Lysine, lysine 4-allyloxy-3-chlorophenylacetate] ; field requested: Vd
Response: 0.304

====

Experiment: Pharmacokinetics from plasma levels after oral, rectal and intramuscular administration in rabbits
Assay type: in vivo, rabbit
Conditions: rabbit, plasma, po, 90 mg/kg, P.OS 90 mg/kg, ± E.S.M.; read-out: Vdβ
attribute-measured: Vd/F (L/kg)
// return numeric value only (unit: L/kg, not printed)

Prompt: Query (compound): C=CCOc1ccc(CC(=O)O)cc1Cl [Alclofenac, 4-allyloxy-3-chlorophenylacetic acid, reference compound] ; field requested: Vd/F
Response: 0.326

====

Test: Pharmacokinetics from plasma levels after oral, rectal and intramuscular administration in rabbits
Format: in vivo, rabbit
Settings: rabbit, plasma, im, 80 mg/kg, INTRAMUSCOLAR 80 mg/kg, ± E.S.M.; read-out: Cmax
attribute-measured: Cmax (µg/mL)
// return numeric value only (unit: µg/mL, not printed)

Prompt: Query (molecule): C=CCOc1ccc(CC(=O)O)cc1Cl [Alclofenac-Lysine, lysine 4-allyloxy-3-chlorophenylacetate] ; field requested: Cmax
Response: 144

====

Test: Pharmacokinetics from plasma levels after oral, rectal and intramuscular administration in rabbits
Type: in vivo, rabbit
Conditions: rabbit, plasma, 100 mg/kg, RECTAL 100 mg/kg, ± E.S.M.; read-out: Cmax
attribute-measured: Cmax (µg/mL)
// return numeric value only (unit: µg/mL, not printed)

Prompt: Query (compound): C=CCOc1ccc(CC(=O)O)cc1Cl [Alclofenac, 4-allyloxy-3-chlorophenylacetic acid, reference compound] ; field requested: Cmax
Response: 425

====

Assay: Pharmacokinetics after i.v. injection in rabbits
Type: in vivo, rabbit
Details: rabbit, plasma, iv, 90 mg/kg, i.v. 90 mg/kg (as acid); individual, in order Rabbit I, II, III, IV; read-out: t1/2α
attribute-measured: half-life (min)
// return numeric value only (unit: min, not printed)

Prompt: Query (compound): C=CCOc1ccc(CC(=O)O)cc1Cl [Alclofenac-Lysine, lysine 4-allyloxy-3-chlorophenylacetate] ; field requested: half-life
Response: 8.5

====

Assay: Pharmacokinetics from plasma levels after oral, rectal and intramuscular administration in rabbits
Assay type: in vivo, rabbit
Conditions: rabbit, plasma, im, 80 mg/kg, INTRAMUSCOLAR 80 mg/kg, ± E.S.M.
attribute-measured: k el (s⁻¹)
// return numeric value only (unit: s⁻¹, not printed)

Prompt: Query (molecule): C=CCOc1ccc(CC(=O)O)cc1Cl [Alclofenac-Lysine, lysine 4-allyloxy-3-chlorophenylacetate] ; field requested: k el
Response: 1.17e-05
